The origin of these recorded values is the supplement of paper PMC6555819.

Kindly supply the reported PBM binding z-score values for the records listed here.
tested on: RARb homodimer (NR concentration 270 nM); test: PBM binding z-score (relative to random genomic background probes); higher = stronger binding; sequences stand for … in GC…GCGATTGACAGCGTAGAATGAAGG
Answers are plain numbers.

Consider the reported PBM binding z-score for these sequences:
### Prompt Kindly indicate its recorded PBM binding z-score. Item: AGTCAAAGTTAATCTAGGTAACGTAAGATATGCT
### Response -0.203

### Prompt Kindly indicate its recorded PBM binding z-score. Item: CGAACTAGGTCAAGGACACTGAATCTCCGCACGC
### Response 3.08

### Prompt Kindly indicate its recorded PBM binding z-score. Item: CCGATTAGTTGACCATAAGGGCAACCGAAGCTCG
### Response 2.01

### Prompt Kindly indicate its recorded PBM binding z-score. Item: TCTGCTAGGTCAGTTGGTCAGCTAACGAGCTGCC
### Response 2.55

### Prompt Kindly indicate its recorded PBM binding z-score. Item: CCTACTGGGCCAAAAAGGTCCTTGATGCCGATAA
### Response 0.795

List the reported PBM binding z-score of each sequence below.
1. CCGACTGGGGCAAGGTTCCCATAACGCACAGCCA
2. CGTCCAAGGACAAGGTCAGTGAAAGAGACTCGAA
3. TTACTAAGGTGAGCTGAGGTCGTTGATCCAACTC
4. CCTACTGGGCCACGAAAGGTCATTAATTCAGTGA

### Response
1: 0.27; 2: 3.32; 3: 1.96; 4: 4.39

List the reported PBM binding z-score of each sequence below.
1. AATCGGAGGACAAAGGTCAGAGCTACGCCAGTGA
2. AGAATGAGGTTACCACAGATCAGGGAAACGCTTG

### Response
[4.37, 0.855]

### Prompt Kindly indicate its recorded PBM binding z-score. Item: CCAACTGGGCCATCAGGTCATTGATATCAACGTT
### Response 2.79

----------
tested on: RXRa DBDmut IVT, anti-RXR (DBD mutation: RXRa K156A/R161A, NR concentration 90 nM); experiment: PBM binding z-score (relative to random genomic background probes); higher = stronger binding; sequences stand for … in GC…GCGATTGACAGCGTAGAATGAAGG
ATTRIBUTE_MEASURED: PBM binding z-score
One number for each entry.

### Prompt Kindly indicate its recorded PBM binding z-score. Item: GCTGGTAGATCAAGGTTAAGAAAGACTAAGCTAA
### Response -0.116

### Prompt Kindly indicate its recorded PBM binding z-score. Item: CGTCCAAGGTCAATGCTACGTCAGTGAAAGCATT
### Response 3.58

### Prompt Kindly indicate its recorded PBM binding z-score. Item: CAAACTAGGTCACAGAGGTCAGAGTCCGTGCGTA
### Response 3.02

### Prompt Kindly indicate its recorded PBM binding z-score. Item: AGAATAAGGTTAAGATCAGGGAAACAGAATACAT
### Response 0.838

### Prompt Kindly indicate its recorded PBM binding z-score. Item: CCTTACGGGTCCCGAGGTTATAGCACGACGAGCG
### Response -1.34

### Prompt Kindly indicate its recorded PBM binding z-score. Item: ACTCGGAGGACAAAGGTCCGAGCTACGCCAGTGA
### Response 0.364

List the reported PBM binding z-score of each sequence below.
1. CAACCTAGGTCAAGGTCAAAGTCGGTTTGTGCCA
2. CTACCACGGTGAACAAGGTCGTTGATTACTATTC
3. CCTAGCAGGCAAATCTGGGTCACTCAAGGCTTGA
4. GCTTACGGGCCAAAGGTTATAGCATGAATAGAAT
5. ATATGTGGGTTAGCTGGGGTCATTCAGACTAGGC
6. CCGAGTAGGTTATGGGGCAATCAGGCAACGGTGA

### Response
1. 2.98
2. 1.04
3. 0.0934
4. 0.36
5. 2.16
6. -0.315
